# method description: Acute toxicity test of TG-028
# Assay type: in vivo
# stated conditions: in vivo; acute toxicity test
# Experimental: In addition, an acute toxicity test of TG-028 was conducted.
measured endpoint: LD50 (mg/kg)
Answer with a number only, understood to be in mg/kg.

Prompt: Which measured LD50 value corresponds to COc1ccc(CCCCO[C@@H]2O[C@H](CO)[C@@H](O)[C@H](O)[C@H]2O)cc1 [TG-028] ?
Completion: 617

---

# System: VEGF-A mRNA expression in macrophages (RAW264.7)
# method description: In vitro macrophage experiment: activity of compounds to promote VEGF-A mRNA expression (RT-qPCR)
# Assay type: cell-based
# stated conditions: Mus musculus, RAW264.7, 3 h, read-out: Expression level of VEGF-A mRNA
Give fold induction at 3000 µM for every item shown.
Please give only the number in your answer, with no unit.

Prompt: Which measured fold induction at 3000 µM value corresponds to COc1ccc(CN(CCO[C@@H]2O[C@H](CO)[C@@H](O)[C@H](O)[C@H]2O)C(=O)OCc2ccccc2)cc1 ?
Completion: 5.43

Prompt: Which measured fold induction at 3000 µM value corresponds to COc1ccc(CNCCO[C@@H]2O[C@H](CO)[C@@H](O)[C@H](O)[C@H]2O)cc1 ?
Completion: 1.75

Prompt: Which measured fold induction at 3000 µM value corresponds to COc1ccc(NCCCO[C@@H]2O[C@H](CO)[C@@H](O)[C@H](O)[C@H]2O)cc1 ?
Completion: 3.23

---

# System: VEGF-A mRNA expression in macrophages (RAW264.7)
# method description: In vitro macrophage experiment: activity of compounds to promote VEGF-A mRNA expression (RT-qPCR)
# Format: cell-based
# stated conditions: Mus musculus, RAW264.7, 3 h, read-out: Expression level of VEGF-A mRNA
Give fold induction at 1 µM for every item shown.
Please give only the number in your answer, with no unit.

Prompt: Which measured fold induction at 1 µM value corresponds to COc1ccc(CNCCO[C@@H]2O[C@H](CO)[C@@H](O)[C@H](O)[C@H]2O)cc1 [TG-036] ?
Completion: 1.19

Prompt: Which measured fold induction at 1 µM value corresponds to COc1ccc(NCCCO[C@@H]2O[C@H](CO)[C@@H](O)[C@H](O)[C@H]2O)cc1 [TG-037] ?
Completion: 1.3

Prompt: Which measured fold induction at 1 µM value corresponds to COc1ccc(COCCO[C@@H]2O[C@H](CO)[C@@H](O)[C@H](O)[C@H]2O)cc1 [TG-032] ?
Completion: 2.79

Prompt: Which measured fold induction at 1 µM value corresponds to COc1ccc(N(CCCO[C@@H]2O[C@H](CO)[C@@H](O)[C@H](O)[C@H]2O)C(=O)OCc2ccccc2)cc1 [TG-035] ?
Completion: 1.66

Prompt: Which measured fold induction at 1 µM value corresponds to COc1ccc(CN(CCO[C@@H]2O[C@H](CO)[C@@H](O)[C@H](O)[C@H]2O)C(=O)OCc2ccccc2)cc1 [TG-034] ?
Completion: 1.36

Prompt: Which measured fold induction at 1 µM value corresponds to COc1ccc(CN(CCO[C@@H]2O[C@H](CO)[C@@H](O)[C@H](O)[C@H]2O)C(=O)OC(C)(C)C)cc1 [TG-033] ?
Completion: 0.95

Prompt: Which measured fold induction at 1 µM value corresponds to COc1ccc(OCCCO[C@@H]2O[C@H](CO)[C@@H](O)[C@H](O)[C@H]2O)cc1 [TG-031] ?
Completion: 0.2
